Recorded IC50 values for a group of molecules are listed next.
- TARGET_OF_ASSAY: Thymidine kinase (Human herpesvirus 1 (strain SC16) (HHV-1) (Human herpes simplex virus1))
- Sequence (P06479 whole entry): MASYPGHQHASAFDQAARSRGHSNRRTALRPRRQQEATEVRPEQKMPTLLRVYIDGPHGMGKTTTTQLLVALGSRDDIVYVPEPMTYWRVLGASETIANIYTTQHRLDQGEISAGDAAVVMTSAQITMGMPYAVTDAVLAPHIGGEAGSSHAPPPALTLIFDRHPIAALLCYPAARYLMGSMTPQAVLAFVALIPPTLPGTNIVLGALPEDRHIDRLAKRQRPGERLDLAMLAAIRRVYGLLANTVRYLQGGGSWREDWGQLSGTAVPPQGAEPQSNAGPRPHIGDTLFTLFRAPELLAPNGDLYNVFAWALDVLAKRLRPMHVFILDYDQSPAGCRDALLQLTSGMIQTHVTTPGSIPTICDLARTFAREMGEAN
- TEST_PROTOCOL: Inhibitory activity against HSV-1 thymidine kinase isolated from HeLa cells
- Type: cell-free
- TEST_CONTEXT: read-out: Log 1/IC50 (converted)

{"MOLECULAR_STRING": "Oc1[nH]c(Nc2cccc(CBr)c2)nc2ncnc1-2", "TARGET_OF_ASSAY": "Thymidine kinase (Human herpesvirus 1 (strain SC16) (HHV-1) (Human herpes simplex virus1))", "IC50 (µM)": 1}
{"MOLECULAR_STRING": "Oc1[nH]c(Nc2ccc(F)cc2)nc2ncnc1-2", "TARGET_OF_ASSAY": "Thymidine kinase (Human herpesvirus 1 (strain SC16) (HHV-1) (Human herpes simplex virus1))", "IC50 (µM)": 302}
{"MOLECULAR_STRING": "Cc1ccc(Nc2nc(O)c3[nH]cnc3n2)cc1CO", "TARGET_OF_ASSAY": "Thymidine kinase (Human herpesvirus 1 (strain SC16) (HHV-1) (Human herpes simplex virus1))", "IC50 (µM)": 269}
{"MOLECULAR_STRING": "CCCc1ccc(Nc2nc(O)c3[nH]cnc3n2)cc1", "TARGET_OF_ASSAY": "Thymidine kinase (Human herpesvirus 1 (strain SC16) (HHV-1) (Human herpes simplex virus1))", "IC50 (µM)": 30.2}
{"MOLECULAR_STRING": "O=c1[nH]c(Nc2ccc(O)cc2)nc2nc[nH]c12", "TARGET_OF_ASSAY": "Thymidine kinase (Human herpesvirus 1 (strain SC16) (HHV-1) (Human herpes simplex virus1))", "IC50 (µM)": 141}
{"MOLECULAR_STRING": "Oc1[nH]c(Nc2cccc(CCl)c2)nc2ncnc1-2", "TARGET_OF_ASSAY": "Thymidine kinase (Human herpesvirus 1 (strain SC16) (HHV-1) (Human herpes simplex virus1))", "IC50 (µM)": 1.41}
{"MOLECULAR_STRING": "[N-]=[N+]=NCc1cccc(Nc2nc3ncnc-3c(O)[nH]2)c1", "TARGET_OF_ASSAY": "Thymidine kinase (Human herpesvirus 1 (strain SC16) (HHV-1) (Human herpes simplex virus1))", "IC50 (µM)": 0.794}
{"MOLECULAR_STRING": "Cc1ccc(Nc2nc3nc[nH]c3c(=O)[nH]2)cc1", "TARGET_OF_ASSAY": "Thymidine kinase (Human herpesvirus 1 (strain SC16) (HHV-1) (Human herpes simplex virus1))", "IC50 (µM)": 50.1}
{"MOLECULAR_STRING": "Oc1[nH]c(Nc2ccc3ccccc3c2)nc2ncnc1-2", "TARGET_OF_ASSAY": "Thymidine kinase (Human herpesvirus 1 (strain SC16) (HHV-1) (Human herpes simplex virus1))", "IC50 (µM)": 39.8}
{"MOLECULAR_STRING": "Oc1[nH]c(Nc2ccc(F)c(Cl)c2)nc2ncnc1-2", "TARGET_OF_ASSAY": "Thymidine kinase (Human herpesvirus 1 (strain SC16) (HHV-1) (Human herpes simplex virus1))", "IC50 (µM)": 7.94}
{"MOLECULAR_STRING": "N#Cc1cccc(Nc2nc3ncnc-3c(O)[nH]2)c1", "TARGET_OF_ASSAY": "Thymidine kinase (Human herpesvirus 1 (strain SC16) (HHV-1) (Human herpes simplex virus1))", "IC50 (µM)": 5.01}
{"MOLECULAR_STRING": "CCCCc1ccc(Nc2nc(O)c3[nH]cnc3n2)cc1C", "TARGET_OF_ASSAY": "Thymidine kinase (Human herpesvirus 1 (strain SC16) (HHV-1) (Human herpes simplex virus1))", "IC50 (µM)": 39.8}
{"MOLECULAR_STRING": "Oc1[nH]c(Nc2ccc(Cl)cc2)nc2ncnc1-2", "TARGET_OF_ASSAY": "Thymidine kinase (Human herpesvirus 1 (strain SC16) (HHV-1) (Human herpes simplex virus1))", "IC50 (µM)": 100}
{"MOLECULAR_STRING": "CCc1cccc(Nc2nc3nc[nH]c3c(=O)[nH]2)c1", "TARGET_OF_ASSAY": "Thymidine kinase (Human herpesvirus 1 (strain SC16) (HHV-1) (Human herpes simplex virus1))", "IC50 (µM)": 2.51}
{"MOLECULAR_STRING": "Oc1[nH]c(Nc2ccc(Br)cc2)nc2ncnc1-2", "TARGET_OF_ASSAY": "Thymidine kinase (Human herpesvirus 1 (strain SC16) (HHV-1) (Human herpes simplex virus1))", "IC50 (µM)": 1}
{"MOLECULAR_STRING": "Oc1[nH]c(Nc2cccc(Br)c2)nc2ncnc1-2", "TARGET_OF_ASSAY": "Thymidine kinase (Human herpesvirus 1 (strain SC16) (HHV-1) (Human herpes simplex virus1))", "IC50 (µM)": 1.51}
